src = patent US20190112365A1

- assayed.target: T1, Human Tau 2N4R, wild type, recombinant full length (human, UniProt P10636 2-758)
- T1 construct: Full length 2N4R isoform; monomer in SPR and ELISA; heparin-induced aggregates or seeds in the functional assays; also called Tau441; Tau-441
- T1 sequence (P10636 other isoform, or with tags, fused parts or gaps limits assumed): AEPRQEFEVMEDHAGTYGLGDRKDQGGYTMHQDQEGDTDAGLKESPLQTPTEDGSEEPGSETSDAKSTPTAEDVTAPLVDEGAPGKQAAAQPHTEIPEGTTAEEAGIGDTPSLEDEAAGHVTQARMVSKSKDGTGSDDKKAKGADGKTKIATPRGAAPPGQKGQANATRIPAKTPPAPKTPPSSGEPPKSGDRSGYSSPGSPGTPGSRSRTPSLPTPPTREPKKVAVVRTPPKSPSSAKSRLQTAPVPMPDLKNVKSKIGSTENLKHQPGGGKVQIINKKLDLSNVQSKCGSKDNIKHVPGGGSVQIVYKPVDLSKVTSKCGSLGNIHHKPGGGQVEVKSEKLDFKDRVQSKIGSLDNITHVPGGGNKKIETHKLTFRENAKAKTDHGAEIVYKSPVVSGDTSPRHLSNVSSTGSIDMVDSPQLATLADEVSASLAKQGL
- assay.method.text: SPR BIAcore, mAb captured by anti-human IgG, Tau flowed, 1:1 Langmuir
Examples of binders with documented kon follow.
Note: unit M⁻¹ s⁻¹ is implicit; provide only the numeric part.

binder	kon / M⁻¹ s⁻¹
7G6-HCzu20-LCzu12 (antibody, human IgG1, kappa, V domains shown, humanized, human IgG1 kappa) VH: EVQLLESGGGLVQPGGSLRLSCAASGYTFTTYWITWVRQAPGKGLEWVSDIYPGSSICNYADKFKGRFTISRDNSKNTLYLQMNSLRAEDTAVYYCAKEDGYDAWFAYWGQGTLVTVSS VL: DVQMTQSPSSLSASVGDRVTITCRSSQSILHSNGNTYLEWYQQKPGKAPKLLICKVSNRFSGVPSRFSGSGSGTDFTLTISSLQPEDFATYYCFQGSHVPFTFGQGTKLEIKR	1.14e+06

Now for the binder whose kon we want.
The binder identified as 7G6-HCzu18-LCzu12 (antibody, human IgG1, kappa, V domains shown, humanized, human IgG1 kappa) VH: EVQLLESGGGLVQPGGSLRLSCAASGYTFTTYWITWVRQAPGKGLEWVSDIYPGSSICNYNEKFKSRFTISRDNSKNTLYLQMNSLRAEDTAVYYCAREDGYDAWFAYWGQGTLVTVSS VL: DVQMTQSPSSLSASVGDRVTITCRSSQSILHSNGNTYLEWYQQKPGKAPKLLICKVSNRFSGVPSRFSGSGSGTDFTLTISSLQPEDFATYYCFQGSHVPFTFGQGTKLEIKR registered its kon at 1.57e+06
